Taken from PubChem BioAssay AID602141.

ASSAY_INFO: KKLEB cell viability reduction – uHTS, fluorescence assay plates, cytotoxicity control for CF NF-kB inhibitor project, primary screen (AID 602141)
CONDITION_SET: KKLEB CF airway cells viability, ATPlite luminescence, overnight; at 5 µM; active compounds read low; cells stimulated with P. aeruginosa culture filtrate
Hit rate of the full screen: of about 360,000 compounds, about 1,300 (0.36%) were called active. For the sample, actives were picked, then their nearest neighbours and some compounds at random.
ATTRIBUTE_MEASURED: activity change (cytotoxicity) (%)
Field: numeric (%). Do not append units.

Consider the reported activity change (cytotoxicity) for these compounds:
COMPOUND	UNITS	RECORDED_MEASUREMENT
O=C(COC(=O)c1cccc(Br)c1)Nc1cccc2c1C(=O)c1ccccc1C2=O	%	-17.2
O=[N+]([O-])/C=C1\CCCCCN1	%	-1.7
Cn1c(-c2ccco2)nc2cc3ccccc3cc21	%	-57.4
O=C(CC1CCCCC1)Nc1c2c(nn1-c1ccc(F)cc1)CS(=O)(=O)C2	%	-3.9
O=C(NCCSc1ncc(-c2ccccc2)[nH]1)c1ccco1	%	0.1
Cc1cc(C)cc(-c2nnc(SCC(=O)NC3CC3)o2)c1	%	8.4
CC(=O)Nc1ccc(S(=O)(=O)N2CCn3cccc3C2C)cc1 (centres undefined)	%	-3.5
COc1cccc(C(=O)Oc2cc(C)[nH]c(=O)c2[N+](=O)[O-])c1	%	0.5

Form field: reported activity change (cytotoxicity) of Cn1c(SCC(=O)Nc2ccc(Br)cc2F)nnc1-c1ccco1
-9.6

Param item: COCCNC(=O)C1(C)CCCN(Cc2cccc(F)c2)C1 (centres undefined)
6.2

Param item: O=C(Nc1cccc2ccccc12)NC1CC1
1

Param item: COc1ccc(C(CC(=O)Nc2ccc(C)cc2)NC(=O)C(F)(F)F)cc1 (centres undefined)
6.9

Param item: Cc1c(CCO)c(=O)[nH]n1C(=O)c1c(F)cccc1F
1.8

====

ASSAY_INFO: KKLEB cell viability reduction – uHTS, fluorescence assay plates, cytotoxicity control for CF NF-kB inhibitor project, primary screen (AID 602141)
CONDITION_SET: KKLEB CF airway cells viability, ATPlite luminescence, overnight; at 5 µM; cells stimulated with P. aeruginosa culture filtrate
The campaign covered roughly 360,000 compounds. About 1,300 (0.36%) were called active.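 Rule for the calls: active = corrected activity change at or below -50% at 5 µM; inactive = the rest.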 This is one part of a sample in which actives are shown more often than they occur.
Your answer must be one of the following: class 1 (active), class 0 (inactive)

Would you please look over these solved cases?
CCOc1ccc(NC(=O)CSc2nc3ccccc3c(=O)n2Cc2cccs2)cc1 class 1
CN(CC(=O)Nc1ccc(S(=O)(=O)N2CCCC2)cc1)Cc1ccc(Cl)c(Cl)c1 class 0
Cc1ccc(CC(=O)Nc2ccc(OC(F)F)c(Cl)c2)cc1C class 0
CN(CC(=O)NNC(=O)CNC(=O)c1ccccc1Cl)S(=O)(=O)c1ccc(Cl)cc1 class 1
COc1c(C=O)c(CCN(C)C(=O)c2ccc(F)cc2)cc2c1OCO2 class 0

Name the outcome recorded for C[C@H]1CN([C@@H](C)CO)C(=O)CCCn2cc(nn2)CO[C@@H]1CN(C)S(=O)(=O)c1cccc(C#N)c1 in the assay.
class 0

Param item: CN(CC(=O)NCCc1ccccn1)S(=O)(=O)c1ccc(Cl)cc1
class 0

Param item: O=C(CSc1nc2nccnc2c(=O)n1Cc1cccs1)Nc1ccccc1F
class 0

Param item: Cn1ccnc1-c1nnn(-c2ccc(F)cc2)n1
class 0

Param item: Clc1ccc(COn2c(-c3ccc(Cl)cc3Cl)nc3ncccc32)cc1
class 0
